system_under_test: human Adenosine A1 receptor (Homo sapiens (Human), UniProt P30542)
Sequence (P30542 whole entry): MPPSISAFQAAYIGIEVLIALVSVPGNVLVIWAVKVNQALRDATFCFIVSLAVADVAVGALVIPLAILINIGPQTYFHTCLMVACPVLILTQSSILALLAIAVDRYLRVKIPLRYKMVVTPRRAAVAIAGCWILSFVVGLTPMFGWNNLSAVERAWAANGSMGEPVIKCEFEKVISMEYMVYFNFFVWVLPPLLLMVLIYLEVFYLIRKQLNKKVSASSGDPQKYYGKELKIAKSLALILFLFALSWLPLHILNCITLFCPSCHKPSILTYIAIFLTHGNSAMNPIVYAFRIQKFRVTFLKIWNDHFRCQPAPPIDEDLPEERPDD
assay_method_text: Adenosine receptor TR-FRET binding assay (A1)
study_conditions: inhibition of binding of 100 nM CA200645, CHO cell membranes
recorded_metric: Ki (nM)
Answers are plain numbers, in nM.

Example entries and their recorded answers appear below.
| compound | Ki / nM |
| --- | --- |
| Cc1cc(-c2sc(NC(=O)N3CC(=O)N4CCCCC4C3)nc2-c2cccc(C#N)c2)cc(C)n1 (stereo not drawn) [Example 6.15] | 263 |
| Cc1cc(-c2sc(NC(=O)N3CC4(COC4)C3)nc2-c2cccc(C#N)c2)cc(C(F)F)n1 [Example 6.97] | 17 |
| Cc1cc(-c2sc(NC(=O)N3CCN4CCC3C4)nc2-c2cccc(C#N)c2)cc(C)n1 (stereo not drawn) [Example 6.121] | 123 |
| Cc1cc(-c2sc(NC(=O)N3CCC4(CC3)NC(=O)NC4=O)nc2-c2cccc(C#N)c2)cc(C)n1 [Example 4.20] | 161 |
| Cc1cc(-c2sc(NC(=O)N3CCS(=O)(=NC#N)CC3)nc2-c2cccc(C#N)c2)cc(C)n1 [Example 11] | 51 |
| Cc1cc(-c2sc(NC(=O)N3CC[C@H]3C(C)(C)O)nc2-c2cccc(C#N)c2)cc(C)n1 [Example 6.82] | 116 |
| Cc1cc(-c2sc(NC(=O)N3CC[C@@H]3C(C)(C)O)nc2-c2cccc(C#N)c2)cc(C)n1 [Example 6.83] | 129 |
| Cc1cc(-c2sc(NC(=O)N3CC[S+]([O-])CC3)nc2-c2cccc(C#N)c2)cc(C(F)F)n1 [Example 6.19] | 20 |

Hi there! I need Ki for each item below, if you can.
1. Cc1cc(-c2sc(NC(=O)N3CC(C(=O)O)C3)nc2-c2cccc(C#N)c2)cc(C)n1 [Example 6.70]
2. Cc1cc(-c2sc(NC(=O)N3CC[S+]([O-])CC3)nc2-c2cccc(C#N)c2)cc(CO)n1 [Example 9.3]

output:
1. 163
2. 29

Hi there! I need Ki for each item below, if you can.
1. Cc1cc(-c2sc(NC(=O)N3CC[S+]([O-])CC3)nc2-c2cccc(C#N)c2)cc(C#N)n1 [Example 16.5]
2. Cc1cc(-c2sc(NC(=O)N3CC[C@@H](C#N)C3)nc2-c2cccc(C#N)c2)cc(C)n1 [Example 4.10]
3. Cc1cc(-c2sc(NC(=O)N3CCn4ccnc4C3)nc2-c2cccc(C#N)c2)cc(C)n1 [Example 6.27]
4. Cc1cc(-c2sc(NC(=O)N3CCC4(CCC(=O)NC4)CC3)nc2-c2cccc(C#N)c2)cc(C)n1 [Example 6.40]
5. Cc1cc(-c2sc(NC(=O)N3CCCC3)nc2-c2cccc(C#N)c2)cc(Cl)n1 [Example 3.2]

output:
[87, 50, 45, 110, 12]

----------
Exercise: state measured log10 of Ki for each of the compounds provided.
system_under_test: UniProtKB P30542
assay_method_text: Adenosine receptor TR-FRET binding assay (A1)
study_conditions: inhibition of binding of 100 nM CA200645, CHO cell membranes
Protocol: Biological Example 1—Adenosine Receptor Time-Resolved Fluorescence Resonance Energy Transfer (TRFRET) Binding Assay […] Serial dilution (1:3 dilutions) of test compounds in neat DMSO and transfer of a 400 nL sample of test compound into the assay plate was carried out using the Mosquito (TTP Labtech, UK). […] Total and non-specific binding of CA200645 was determined in the absence and presence of 10 μM XAC, respectively. […]
Where a name gives a salt, the structure may show the parent alone.
Scale: log10; quantity: Ki; unit before log: nM

Example entries and their recorded answers appear below.
| compound | reported |
| --- | --- |
| Cc1cc(-c2sc(NC(=O)N3CCC4(CCC(=O)N4C)CC3)nc2-c2cccc(C#N)c2)cc(C)n1 | 2.61 |
| Cc1cc(-c2sc(NC(=O)N3CCC(CN4CCOCC4)CC3)nc2-c2cccc(C#N)c2)cc(C)n1 [Example 6.116, formate salt] | 2.45 |
| Cc1cc(-c2sc(NC(=O)N3C[C@@H](C)N[C@@H](C)C3)nc2-c2cccc(C#N)c2)cc(C)n1 | 2.57 |
| Cc1cc(-c2sc(NC(=O)N3CC(C)(O)C3)nc2-c2cccc(C#N)c2)cc(C)n1 | 0.95 |
| Cc1cc(-c2sc(NC(=O)N3CCC(C)(O)CC3)nc2-c2cccc(C#N)c2)cc(Cl)n1 | 1.15 |

Hi there! I need log10 of Ki for each item below, if you can.
1. Cc1cc(-c2sc(NC(=O)N3CC4(COC4)C3)nc2-c2cccc(C#N)c2)c(F)c(C)n1
2. Cc1cc(-c2sc(NC(=O)N3CC4(CCOC(=O)N4)C3)nc2-c2cccc(C#N)c2)cc(C)n1

output:
[1.85, 1.41]

----------
# human Adenosine A3 receptor (Homo sapiens (Human)): Ki values follow
# Sequence (P0DMS8 whole entry): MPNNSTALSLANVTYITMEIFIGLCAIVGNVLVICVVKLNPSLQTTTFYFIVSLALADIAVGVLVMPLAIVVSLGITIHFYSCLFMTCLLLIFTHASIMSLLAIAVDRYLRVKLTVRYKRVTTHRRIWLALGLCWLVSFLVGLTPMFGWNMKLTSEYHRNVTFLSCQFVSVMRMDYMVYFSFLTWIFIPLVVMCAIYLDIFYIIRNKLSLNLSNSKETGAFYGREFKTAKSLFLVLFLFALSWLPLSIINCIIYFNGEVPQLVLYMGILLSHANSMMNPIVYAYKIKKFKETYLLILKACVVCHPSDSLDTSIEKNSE
Don't forget the unit after the value.

| compound | system_under_test | reported |
| --- | --- | --- |
| Cc1cc(-c2sc(NC(=O)N3CCC4(CC3)CN(C)C(=O)N4C)nc2-c2cccc(C#N)c2)cc(C)n1 [Example 6.89] | human Adenosine A3 receptor (Homo sapiens (Human)) | 300 nM |
| Cc1cc(-c2sc(NC(=O)N3CC[S+]([O-])CC3)nc2-c2cccc(C#N)c2)cc(C(F)(F)F)n1 [Example 16.2] | human Adenosine A3 receptor (Homo sapiens (Human)) | 135 nM |
| Cc1cc(-c2sc(NC(=O)N3CC(=O)N[C@H](C)C3)nc2-c2cccc(C#N)c2)cc(C)n1 [Example 6.85] | human Adenosine A3 receptor (Homo sapiens (Human)) | 216 nM |

For the next question, use this compound.
input: Given the entry Cc1cc(-c2sc(NC(=O)N3CCC4(CCC(=O)N4C)CC3)nc2-c2cccc(C#N)c2)cc(C)n1 [Example 6.94] , report its measured Ki.
output: 719 nM

----------
system_under_test: human Adenosine A3 receptor (Homo sapiens (Human))
Where a name gives a salt, the structure may show the parent alone.
Exercise: state measured pKi for each of the compounds provided.
Answers are plain numbers, as −log10 of the molar value.

Example entries and their recorded answers appear below.
| compound | system_under_test | recorded_metric | reported |
| --- | --- | --- | --- |
| Cc1cc(-c2sc(NC(=O)N3CCC4(CC3)CNC4=O)nc2-c2cccc(C#N)c2)cc(C)n1 | human Adenosine A3 receptor (Homo sapiens (Human)) | pKi | 6.54 |
| Cc1cc(-c2sc(NC(=O)N3CCC(N4CCOCC4)C3)nc2-c2cccc(C#N)c2)cc(C)n1 (stereo not drawn) [Example 6.84, hemi formate salt] | human Adenosine A3 receptor (Homo sapiens (Human)) | pKi | 6.25 |
| COc1cc(-c2sc(NC(=O)N3CC[S+]([O-])CC3)nc2-c2cccc(C#N)c2)cc(C)n1 | human Adenosine A3 receptor (Homo sapiens (Human)) | pKi | 6.42 |
| Cc1cc(-c2sc(NC(=O)N3CCN[C@H](C(N)=O)C3)nc2-c2cccc(C#N)c2)cc(Cl)n1 | human Adenosine A3 receptor (Homo sapiens (Human)) | pKi | 6.32 |
| Cc1cc(-c2sc(NC(=O)N3CCC34COC4)nc2-c2cccc(C#N)c2)cc(C)n1 | human Adenosine A3 receptor (Homo sapiens (Human)) | pKi | 7.43 |

For the next question, use this compound.
input: Given the entry Cc1cc(-c2sc(NC(=O)N3CC(C(C)(C)O)C3)nc2-c2cccc(C#N)c2)cc(C)n1 , report its measured pKi.
output: 6.39

----------
system_under_test: human Adenosine A2b receptor (Homo sapiens (Human))
Sequence (P29275 whole entry): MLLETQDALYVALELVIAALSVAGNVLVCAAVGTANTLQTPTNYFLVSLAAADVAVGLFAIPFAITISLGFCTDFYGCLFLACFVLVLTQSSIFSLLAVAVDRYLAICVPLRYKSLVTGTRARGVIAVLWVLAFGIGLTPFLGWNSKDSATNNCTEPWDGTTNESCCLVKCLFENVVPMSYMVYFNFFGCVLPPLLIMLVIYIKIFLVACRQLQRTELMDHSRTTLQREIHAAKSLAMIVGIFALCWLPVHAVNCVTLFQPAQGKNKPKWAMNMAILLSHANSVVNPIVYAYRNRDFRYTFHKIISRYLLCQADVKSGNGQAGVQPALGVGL
assay_method_text: Adenosine receptor TR-FRET binding assay (A2b)
study_conditions: TR-FRET, inhibition of binding of 30 nM CA200645, CHO cell membranes
recorded_metric: pKi
One number for each entry, as −log10 of the molar value.

Example entries and their recorded answers appear below.
| compound | reported |
| --- | --- |
| CC(=O)N1C[C@H]2C[C@@H]1CN2C(=O)Nc1nc(-c2cccc(C#N)c2)c(-c2cc(C)nc(C)c2)s1 | 8.52 |
| Cc1cc(-c2sc(NC(=O)N3CCS(=N)(=O)CC3)nc2-c2cccc(C#N)c2)cc(C(F)F)n1 | 8.66 |
| Cc1cc(-c2sc(NC(=O)N3CCC(C#N)(C(C)(C)O)CC3)nc2-c2cccc(C#N)c2)cc(C)n1 | 8.89 |
| CC(C)(O)c1cc(-c2sc(NC(=O)N3CC4(COC4)C3)nc2-c2cccc(C#N)c2)cc(Cl)n1 | 8.24 |
| Cc1cc(-c2sc(NC(=O)N3CCC(c4ncon4)CC3)nc2-c2cccc(C#N)c2)cc(C)n1 | 8.74 |

Hi there! I need pKi for each item below, if you can.
1. COC(C)c1cc(-c2sc(NC(=O)N3CC4(COC4)C3)nc2-c2cccc(C#N)c2)cc(C)n1 (stereo not drawn)
2. Cc1cc(-c2sc(NC(=O)N3CCC[C@@H]3C(C)(C)O)nc2-c2cccc(C#N)c2)cc(Cl)n1
3. Cc1cc(-c2sc(NC(=O)N3CC(C#N)C3)nc2-c2cccc(C#N)c2)cc(C)n1
4. Cc1cc(-c2sc(NC(=O)N3CC4(COC4)C3)nc2-c2cccc(C#N)c2)cc([C@@H](C)O)n1 (single isomer, unassigned) [Example 12.3b]
5. Cc1cc(-c2sc(NC(=O)N3CCNC[C@@H]3CO)nc2-c2cccc(C#N)c2)cc(C)n1
6. [2H]C([2H])([2H])c1cc(-c2sc(NC(=O)N3CC4(COC4)C3)nc2-c2cccc(C#N)c2)cc(C([2H])([2H])[2H])n1
7. Cc1cc(-c2sc(NC(=O)N3CC4(CNCCO4)C3)nc2-c2cccc(C#N)c2)cc(C)n1
8. Cc1cc(-c2sc(NC(=O)N3CCN(C)CC3)nc2-c2cccc(C#N)c2)cc(C)n1

output:
1: 8.49; 2: 7.30; 3: 9.40; 4: 8.92; 5: 7.73; 6: 9.00; 7: 8.72; 8: 9.15

Hi there! I need pKi for each item below, if you can.
1. Cc1cc(-c2sc(NC(=O)N3CCC4(CCOC4)C3)nc2-c2cccc(C#N)c2)cc(C)n1 (stereo not drawn)
2. Cc1cc(-c2sc(NC(=O)N3CCNC[C@H]3C)nc2-c2cccc(C#N)c2)cc(C)n1

output:
[8.62, 7.91]
